Recorded pKd values for a group of binders are listed next.
# measurement-target: canine FcRn/B2M protein complex (canine FcRn ECD with C-terminal poly-His tag and canine Beta-2-Microglobulin) (canine)
# test-protocol: SPR Biacore 8K, pH 6.0, 25 C; Fc captured by SASA tag on BSA chip, FcRn/B2M 400 nM as analyte
Scale: negative log10 of molar concentration, which is what pKd denotes.

Guide cases for pKd, answers given:
{"columns": ["binder", "pKd"],
 "data": [
  ["variant canine IgG-B Fc polypeptide YYH (Leu24Tyr, Gln83Tyr, Asn208His) (protein, not shown: small tags and cut ends) CPAPEMLGGPSVFIFPPKPKDTLYIARTPEVTCVVVDLDPEDPEVQISWFVDGKQMQTAKTQPREEQFNGTYRVVSVLPIGHYDWLKGKQFTCKVNNKALPSPIERTISKARGQAHQPSVYVLPPSREELSKNTVSLTCLIKDFFPPDIDVEWQSNGQQEPESKYRTTPPQLDEDGSYFLYSKLSVDKSRWQRGDTFICAVMHEALHHHYTQESLSHSPGK", 8.77],
  ["variant canine IgG-B Fc polypeptide Y0H (Leu24Tyr, Asn208His) (protein, not shown: small tags and cut ends) CPAPEMLGGPSVFIFPPKPKDTLYIARTPEVTCVVVDLDPEDPEVQISWFVDGKQMQTAKTQPREEQFNGTYRVVSVLPIGHQDWLKGKQFTCKVNNKALPSPIERTISKARGQAHQPSVYVLPPSREELSKNTVSLTCLIKDFFPPDIDVEWQSNGQQEPESKYRTTPPQLDEDGSYFLYSKLSVDKSRWQRGDTFICAVMHEALHHHYTQESLSHSPGK", 8.09]
]}

Continue with the next binder.
Exercise: Consider the binder variant canine IgG-B Fc polypeptide 0YH (Gln83Tyr, Asn208His) (protein, not shown: small tags and cut ends) CPAPEMLGGPSVFIFPPKPKDTLLIARTPEVTCVVVDLDPEDPEVQISWFVDGKQMQTAKTQPREEQFNGTYRVVSVLPIGHYDWLKGKQFTCKVNNKALPSPIERTISKARGQAHQPSVYVLPPSREELSKNTVSLTCLIKDFFPPDIDVEWQSNGQQEPESKYRTTPPQLDEDGSYFLYSKLSVDKSRWQRGDTFICAVMHEALHHHYTQESLSHSPGK and give its recorded pKd.
Key: 7.93
